System: HCT-15 colon
Experiment: NCI tumour cell line growth inhibition, 48 h
Measured TGI values are reported for all entries that follow.

Reference set, count: 4
> print(dat)
                                   molecule  target.or.test.system  endpoint.name    result
1  Nc1ncnc2occ(-c3ccc(NC(=O)Nc4cccc(C(F)(F)F)c4)cc3)c12           HCT-15 colon            TGI   18.2 µM
2  CCOC(=O)C1=C(C)N(Cc2ccccc2)C2(O)C=CC(=O)C3C(=O)N(c4ccccc4)C(=O)C132 (stereo not given)           HCT-15 colon            TGI   5.14 µM
3        O=C1CC2=CCCC2O1 (stereo not given)           HCT-15 colon            TGI  > 100 µM
4  O=C(N/N=C/c1coc2ccc(Cl)cc2c1=O)c1cc(O)c(O)c(O)c1           HCT-15 colon            TGI   79.7 µM

Now, please, on to the next molecule.
Query: Fill blank: measured TGI of the molecule "COc1cc2c(cc1OCCCN1CCOCC1)N=C[C@@H]1CCCN1C2=O" is ____.
Result: 74.2 µM

###

Measured TGI values are reported for all entries that follow.
Tested on: SK-MEL-2 melanoma
Experiment: NCI tumour cell line growth inhibition, 48 h

Reference set, count: 2
molecule	TGI
CC1CCC2C(C(=O)O[C@H]3C4C=CO[C@@H](OC5OC(CO)C(O)C(O)C5O)C4[C@@]4(CO)O[C@@H]34)=CO[C@@H](OC3OC(CO)C(O)C(O)C3O)C12 (stereo partly specified)	> 10 µM
Cc1ccc2c(n1)C(=O)c1cc(C)c(C)cc1C2=O	> 100 µM

Query: Fill blank: measured TGI of the molecule "O=C(O)c1cc(-c2ccc3cc(O)c(O)cc3c2)ccc1O" is ____.
Result: > 12.5 µM

Query: Fill blank: measured TGI of the molecule "CC1=NN(c2nc(N)nc(CCl)n2)C(C)(C)C1" is ____.
Result: > 100 µM

Query: Fill blank: measured TGI of the molecule "COc1cc(C)cc2c1C(=O)C(NC(C)=O)=CC2=O" is ____.
Result: > 100 µM

Query: Fill blank: measured TGI of the molecule "Cc1nc2ccccc2c(/C=C/c2ccc(C(F)(F)F)cc2)c1C(=O)/C=C/c1ccccc1" is ____.
Result: 3.64 µM

Query: Fill blank: measured TGI of the molecule "CCc1cccc(CC)c1Nc1nc(-c2ccccc2-c2ccccc2)cs1" is ____.
Result: > 100 µM

Query: Fill blank: measured TGI of the molecule CC1(c2cccc(C(F)(F)F)c2)CC(c2cccc(C(F)(F)F)c2)=C(C#N)C(=C(C#N)C#N)N1 (stereo unspecified) is ____.
Result: 41.1 µM

Query: Fill blank: measured TGI of the molecule O=C(O)C(C1NCCS1)N1C(=O)c2ccccc2C1=O (stereo unspecified) is ____.
Result: > 100 µM

Query: Fill blank: measured TGI of the molecule "c1ccc([P+](Cc2ccc(C[P+](c3ccccc3)(c3ccccc3)c3ccccc3)s2)(c2ccccc2)c2ccccc2)cc1" is ____.
Result: > 100 µM

Query: Fill blank: measured TGI of the molecule "CN(COC(=O)C(C)(C)C)c1nc(N(C)COC(=O)C(C)(C)C)nc(N(C)COC(=O)C(C)(C)C)n1" is ____.
Result: > 100 µM

Query: Fill blank: measured TGI of the molecule "CC(=O)NC1=C(NCCO)C(=O)c2ccccc2C1=O" is ____.
Result: > 50 µM

Query: Fill blank: measured TGI of the molecule "CC[C@@]1(O)C(=O)OCc2c1cc1n(c2=O)Cc2cc3c(N)c(OC)ccc3nc2-1" is ____.
Result: 1.47 µM

Query: Fill blank: measured TGI of the molecule "CC[n+]1c(/C=C/c2cc(C(=O)OC)n3c2sc2ccccc23)sc2ccccc21" is ____.
Result: 39 µM

Query: Fill blank: measured TGI of the molecule "O=C(O)CC(CC(=O)O)n1cccc1" is ____.
Result: > 100 µM

Query: Fill blank: measured TGI of the molecule "N=c1oc2ccccc2cc1C(=O)Nc1ccccn1" is ____.
Result: > 100 µM

Query: Fill blank: measured TGI of the molecule "O=C1c2c[n+](Cc3ccccc3)ccc2-c2nc3ccccc3c3ccnc1c23" is ____.
Result: 1.77 µM

Query: Fill blank: measured TGI of the molecule "CS(C)(=O)=Nn1c(=O)n2n(c1=O)[C@H]1CC[C@@H]2C1" is ____.
Result: > 100 µM

Query: Fill blank: measured TGI of the molecule "COc1cc(Br)c(C=Nc2cccc3ccc(OS(=O)(=O)c4ccc([N+](=O)[O-])cc4)cc23)cc1OC" is ____.
Result: > 100 µM

Query: Fill blank: measured TGI of the molecule "CSCCCNC(=O)c1csc(-c2csc(CCNC(=O)CNC(=O)OC(C)(C)C)n2)n1" is ____.
Result: > 100 µM

Query: Fill blank: measured TGI of the molecule O=C1CC2=CCCC2O1 (stereo unspecified) is ____.
Result: > 100 µM

###

System: PC-3 prostate
Experiment: NCI tumour cell line growth inhibition, 48 h
endpoint-name: GI50

Reference set, count: 5
> print(dat)
                                   compound  endpoint.name     result
1  COc1cccc(/C=C2\COc3ccc(O)c(O)c3C2=O)c1OC           GI50    2.22 µM
2    O=NN(CC(=O)NNc1ccccc1)CC(=O)NNc1ccccc1           GI50    5.64 µM
3  COc1cc2c(cc1OCCCN1CCN(CCCOc3cc4c(cc3OC)C(=O)N3C[C@H](F)C[C@H]3C=N4)CC1)N=C[C@@H]1C[C@@H](F)CN1C2=O           GI50  0.0546 µM
4  Cc1nc2sc(C(=O)Nc3cccc4c3OCCO4)c(N)c2cc1C(C)O (centres undefined)           GI50       5 µM
5  O=C(N/N=C/c1coc2ccc(Cl)cc2c1=O)c1cc(O)c(O)c(O)c1           GI50    33.2 µM

Query: Give GI50 (PC-3 prostate) of the following compound: "Nc1ncnc2occ(-c3ccc(NC(=O)Nc4cccc(C(F)(F)F)c4)cc3)c12"
Result: 4.94 µM

Query: Give GI50 (PC-3 prostate) of the following compound: "CCn1cnc(C[C@H](NC(=O)[C@@H](NC(=O)Nc2cc(C(F)(F)F)cc(C(F)(F)F)c2)C(C)(C)C)C(=O)OC)c1"
Result: > 10 µM

Query: Give GI50 (PC-3 prostate) of the following compound: "O=C1/C(=C/c2ccc([N+](=O)[O-])s2)Oc2ccc(Br)cc21"
Result: 0.251 µM

Query: Give GI50 (PC-3 prostate) of the following compound: "C=CCn1c(C)nc2cc(Nc3nc(N4CCCC4)nc4nc[nH]c34)ccc21"
Result: > 100 µM

###

Measured TGI values are reported for all entries that follow.
System: U251 CNS
Experiment: NCI tumour cell line growth inhibition, 48 h

Reference set, count: 5
> print(dat)
                                   molecule    result
1                  CCCCCCCCCCCCNCCCc1ccccc1   2.86 µM
2  CCOC(=O)/C(=C\n1c(=O)sc2ccccc21)C(=O)c1ccccc1  > 100 µM
3  CC1Nc2ccccc2NC1C=C(C#N)C#N (stereo unspecified)   30.3 µM
4          COc1cc(Br)c(/C=N/N=C(\N)NO)cc1OC  > 100 µM
5  CC1=NN(c2ccccc2Cl)C2(C1)C(Cl)C(=O)N2c1nc2ccccc2s1 (stereo unspecified)   76.5 µM

Now, please, on to the next molecule.
Query: Fill blank: measured TGI of the molecule "Cc1nc2ccccc2c(/C=C/c2ccc(F)cc2)c1C(=O)/C=C/c1ccccc1" is ____.
Result: 3.18 µM

###

Tested on: OVCAR-8 ovarian
Assay: NCI tumour cell line growth inhibition, 48 h
endpoint-name: TGI

> print(dat)
                                   molecule     result
1                       O=C1CSc2ccnc(=O)n21   > 100 µM
2  NC(N)=NS(=O)(=O)c1ccc(NCc2cccc3c(=O)c4ccc(Cl)cc4oc23)cc1  > 13.7 µM
3  O=[N+]([O-])C(=C1c2ccccc2-c2ccccc21)[N+](=O)[O-]   > 100 µM
4                      CN(C)Cc1nsc(N(C)C)n1   > 100 µM
5         CN(C)c1ccc(-c2nc(N)nc3c2CCCC3)cc1   > 100 µM

Query: Fill blank: measured TGI of the molecule C1=C(c2ccccc2)NC2=N[C@H]3CCCC[C@@H]3N2C1c1ccccc1 (stereo partly drawn) is ____.
Result: 27.4 µM

Query: Fill blank: measured TGI of the molecule O=C1C2C3C=CC(C2C(=O)N1CN1CCOCC1)C1C2C(=O)N(CN4CCOCC4)C(=O)C2C31 (stereo not drawn) is ____.
Result: > 69.2 µM
